Measurement target: human IRAK4 (Homo sapiens (Human), UniProt Q9NWZ3)
Sequence (Q9NWZ3 whole entry): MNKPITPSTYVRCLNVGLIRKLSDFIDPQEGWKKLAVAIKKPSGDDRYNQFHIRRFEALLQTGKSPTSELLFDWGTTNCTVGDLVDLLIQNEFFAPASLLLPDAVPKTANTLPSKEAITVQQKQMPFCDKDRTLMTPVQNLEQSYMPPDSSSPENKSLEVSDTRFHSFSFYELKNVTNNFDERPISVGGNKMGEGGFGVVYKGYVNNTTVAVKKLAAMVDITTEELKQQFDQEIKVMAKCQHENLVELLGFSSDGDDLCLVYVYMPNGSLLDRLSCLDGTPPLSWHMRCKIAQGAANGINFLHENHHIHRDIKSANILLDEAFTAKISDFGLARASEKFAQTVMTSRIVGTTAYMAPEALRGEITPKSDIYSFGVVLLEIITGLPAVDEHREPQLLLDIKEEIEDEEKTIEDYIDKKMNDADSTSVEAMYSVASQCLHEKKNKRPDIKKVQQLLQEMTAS
Assay explanation: IRAK4 kinase inhibition, Transcreener fluorescence polarization ADP assay
Study conditions: recombinant full-length His6-IRAK4; 125 uM ATP; 90 min; Ki computed using ATP Km 642 uM
pKi: −log10 of the molar value.
Measured endpoint: pKi

CC1(C)Oc2cc(NC(=O)c3cnn4cccnc34)c(N3CCOCC3)cc2C1O (stereo not drawn) : 6.29

P = CNC(=O)[C@H]1[C@@H]2CN(c3cc4c(cc3NC(=O)c3cnn5cccnc35)CC(C)(C)O4)C[C@@H]21
Q = CC1(C)Cc2cc(NC(=O)c3cnn4cccnc34)c(N3CCC(O)C(F)C3)cc2O1 (stereo not drawn)
pKi comparison. Which is larger, P or Q ? Lab log: write the label of the selected item as the result.
Q

----------
Measurement target: human IRAK4 (Homo sapiens (Human), UniProt Q9NWZ3)
Assay explanation: IRAK4 kinase inhibition, Transcreener fluorescence polarization ADP assay
Assay type: biochemical
Study conditions: recombinant full-length His6-IRAK4; 125 uM ATP; 90 min; Ki computed using ATP Km 642 uM
pKi: −log10 of the molar value.
Measured endpoint: pKi

1 = CC(C)(O)[C@@]1(C)Cc2cc(NC(=O)c3cnn4cccnc34)c(N3CCN(Cc4c[nH]cn4)CC3)cc2O1
2 = CC1(C)Cc2cc(NC(=O)c3cnn4cccnc34)c(N3CCN(CC4CCCO4)CC3)cc2O1 (centres unmarked)
3 = CNc1cnc2c(C(=O)Nc3cc4c(cc3N3CCOCC3)OC3(CCN(C)CC3)C4)cnn2c1
4 = O=C(Nc1cc2c(cc1N1CCOCC1)OC(CO)(CO)C2)c1cnn2cccnc12
5 = CC1(C)Cc2cc(NC(=O)c3cnn4cc(C(F)F)cnc34)c(N3CCOCC3)cc2O1
Order required: smallest reported pKi first, largest last, for all molecules above. Please respond with the labels ordered as the question requires.
4, 5, 2, 3, 1

----------
Measurement target: human IRAK4 (Homo sapiens (Human))
Assay explanation: IRAK4 kinase inhibition, Transcreener fluorescence polarization ADP assay
Study conditions: recombinant full-length His6-IRAK4; 125 uM ATP; 90 min; Ki computed using ATP Km 642 uM
Measured endpoint: Ki (nM)

Recorded Ki, per entry:
CC1(C)Cc2cc(NC(=O)c3cnn4cc(OC(F)F)cnc34)c(N3CCOCC3)cc2O1 [Example 493] : 43
CC1(C)Cc2cc(NC(=O)c3cnn4cccnc34)c(N3CCC(C(F)(F)F)C3)cc2O1 (centres unmarked) [Example 195] : 20
CC1(C)Cc2cc(NC(=O)c3cnn4cccnc34)c(N3C[C@@H]4[C@H](C3)[C@H]4C(N)=O)cc2O1 [Example 186] : 15
COCCN1Cc2cc(NC(=O)c3cnn4cccnc34)c(N3CCOCC3)cc2C1=O [Example 178] : 15
CC1(C)Cc2cc(NC(=O)c3cnn4cc(C5CNC5)cnc34)c(N3CCOCC3)cc2O1 [Example 490] : 980

P = C[C@@]1(CO)Cc2cc(NC(=O)c3cnn4cccnc34)c(N3CCOCC3)c(Cl)c2O1 [Example 81]
Q = CN1CCC2(CC1)Cc1cc(NC(=O)c3cnn4cccnc34)c(N3CCOCC3)cc1O2 [Example 152]
R = CC(C)(O)[C@]1(C)Cc2cc(NC(=O)c3cnn4cccnc34)c(N3CCN(Cc4c[nH]cn4)CC3)cc2O1 [Example 523]
S = Cn1cnc(-c2cc3c(cc2NC(=O)c2cnn4cccnc24)CC(C)(C)O3)c1 [Example 488]
T = CN1Cc2cc(NC(=O)c3cnn4cccnc34)c(N3CCOCC3)cc2C1=O [Example 140]
Parameters: sort_field (Ki), sort_dir (desc). Please respond with the labels ordered as the question requires.
S, P, T, Q, R

A = CC(C)(O)[C@@]1(C)Cc2cc(NC(=O)c3cnn4cccnc34)c(O[C@H]3CC[C@H](O)CC3)cc2O1 [Example 315]
B = O=C(Nc1cc2c(cc1N1CCOCC1)O[C@@](CO)(C(F)(F)F)C2)c1cnn2cccnc12 [Example 154]
Lab log: flag the item ( A or B ) with the smaller Ki figure. Lab log: write the label of the selected item as the result.
B

P = C[C@]1(CO)Cc2cc(NC(=O)c3cnn4cccnc34)c(N3C[C@@H]4C[C@H]3CO4)cc2O1 [Example 47]
Q = C[C@@]1(CO)Cc2cc(NC(=O)c3cnn4cccnc34)c(N3CCN(CC(F)F)CC3)cc2O1 [Example 99]
Ki comparison. Which is larger, P or Q ? Lab log: write the label of the selected item as the result.
P

----------
Measurement target: human IRAK4 (Homo sapiens (Human), UniProt Q9NWZ3)
Assay explanation: IRAK4 kinase inhibition, Transcreener fluorescence polarization ADP assay
Study conditions: recombinant full-length His6-IRAK4; 125 uM ATP; 90 min; Ki computed using ATP Km 642 uM
Measured endpoint: Ki (µM)

Recorded Ki, per entry:
CC(C)(O)C1(C)Cc2cc(NC(=O)c3cnn4cccnc34)c(N3CCC(CO)CC3)cc2O1 (stereo not shown) : 0.0053
CC1CNc2cc(NC(=O)c3cnn4cccnc34)c(N3CCOCC3)cc2O1 (stereo not shown) : 0.072
CC(C)(O)C(F)C1(C)Cc2cc(NC(=O)c3cnn4cccnc34)c(N3CCOCC3)cc2O1 (stereo not shown) : 0.018
C[C@]1(CO)Cc2cc(NC(=O)c3cnn4cccnc34)c(OCC(F)F)cc2O1 : 0.01
O=C(Nc1cc2c(cc1N1CCOCC1)C(=O)N([C@@H]1CCOC[C@H]1F)C2)c1cnn2cccnc12 : 0.001
C[C@]1(CO)Cc2cc(NC(=O)c3cnn4cccnc34)c(N3C[C@@H]4[C@H](C3)[C@@H]4C(N)=O)cc2O1 : 0.89
O=C(Nc1cc2c(cc1N1CCOCC1)C(=O)N(CCC1COC1)C2)c1cnn2cccnc12 : 0.005
CC1(C)COc2cc(N3CCOCC3)c(NC(=O)c3cnn4cccnc34)cc2N1 : 0.19
CC1(CO)Cc2cc(NC(=O)c3cnn4cc(Cl)cnc34)c(N3CCN(CC(F)F)CC3)cc2O1 (stereo not shown) : 0.0036
O=C(Nc1cc2c(cc1N1CCOCC1)C(=O)N([C@H]1CCOC[C@@H]1F)C2)c1cnn2cccnc12 : 0.005

I = CC1(C)Cc2cc(NC(=O)c3cnn4cccnc34)c(N3CCC4(CC3)CN(CC(F)F)C4)cc2O1
II = CC1(C)Cc2cc(NC(=O)c3cnn4cccnc34)c(OCC3CCOC3)cc2O1 (stereo not shown)
Lab log: flag the item ( I or II ) with the smaller Ki figure. Lab log: write the label of the selected item as the result.
II
(II: 0.018 µM, I: 0.036 µM)

P = C[C@]1(CO)Cc2cc(NC(=O)c3cnn4cccnc34)c(N3CCC([C@@](C)(O)C(F)(F)F)CC3)cc2O1
Q = C[C@@]1(CO)Cc2cc(NC(=O)c3cnn4cccnc34)c(N3CC[C@@H](F)C3)cc2O1
Lab log: flag the item ( P or Q ) with the smaller Ki figure. Lab log: write the label of the selected item as the result.
P

P = CC1(C)Cc2cc(NC(=O)c3cnn4cccnc34)c(N3CCCOCC3)cc2O1
Q = CCC(O)(CC)CN1CCN(c2cc3c(cc2NC(=O)c2cnn4cccnc24)CC(C)(C)O3)CC1
R = C[C@@H](C(N)=O)N1CCN(c2cc3c(cc2NC(=O)c2cnn4cccnc24)CC(C)(C)O3)CC1
S = Cc1nnc(CN2CCN(c3cc4c(cc3NC(=O)c3cnn5cccnc35)CC(C)(C)O4)CC2)o1
Hey, quick one: sort these by Ki, low to high? Please respond with the labels ordered as the question requires.
R, P, S, Q

----------
Measurement target: human IRAK4 (Homo sapiens (Human), UniProt Q9NWZ3)
Assay explanation: IRAK4 kinase inhibition, Transcreener fluorescence polarization ADP assay
Study conditions: recombinant full-length His6-IRAK4; 125 uM ATP; 90 min; Ki computed using ATP Km 642 uM
pKi: −log10 of the molar value.
Measured endpoint: pKi

Recorded pKi, per entry:
Cc1nc(CN2CCN(c3cc4c(cc3NC(=O)c3cnn5cccnc35)CC(C)(C)O4)CC2)c[nH]1 : 8.49
CC1(C)Cc2cc(NC(=O)c3cnn4cccnc34)c(N3CCCC(F)(F)CC3)cc2O1 : 7.77
CC1(CC(N)=O)CCN(c2cc3c(cc2NC(=O)c2cnn4cccnc24)CC(C)(C)O3)CC1 : 8.51
CC1(C)Cc2cc(NC(=O)c3cnn4cccnc34)c(C3CC3)cc2O1 : 7.43
NC(=O)CN1CCN(c2cc3c(cc2NC(=O)c2cnn4cccnc24)CN(CC(F)(F)F)C3=O)CC1 : 8.40

A = CC1(C)Cc2cc(NC(=O)c3cnn4cccnc34)c(N3CCN(CCC#N)CC3)cc2O1
B = CC1(C)Cc2cc(NC(=O)c3cnn4cccnc34)c(N3C[C@@H]4CC(F)(F)C[C@@H]4C3)cc2O1
C = O=C(Nc1cc2c(cc1N1CCOCC1)C(=O)N([C@@H]1CCC[C@@H]1CO)C2)c1cnn2cccnc12
Parameters: sort_field (pKi), sort_dir (desc). Please respond with the labels ordered as the question requires.
A, B, C
(A: 8.36, B: 7.48, C: 7.03)

a = CC1(C)Cc2cc(NC(=O)c3cnn4cccnc34)c(N3CCC(O)(CC(N)=O)CC3)cc2O1
b = CCn1cc(COc2cc3c(cc2NC(=O)c2cnn4cccnc24)CC(C)(C)O3)cn1
pKi comparison. Which is larger, a or b ? Lab log: write the label of the selected item as the result.
a
(a: 8.51, b: 7.62)

1 = CC(C)(O)[C@H](F)CN1Cc2cc(NC(=O)c3cnn4cc(C(N)=O)cnc34)c(N3CCOCC3)cc2C1=O
2 = O=C(Nc1cc2c(cc1N1CCOCC1)C(=O)N(C1CCOCC1)C2)c1cnn2cccnc12
Lab log: flag the item ( 1 or 2 ) with the smaller pKi figure. Lab log: write the label of the selected item as the result.
2
(2: 8.40, 1: 8.70)
